All values here come from ChEMBL document CHEMBL1140024.

Property: pEC50; scope: individual compounds
experimental_system: Peroxisome proliferator-activated receptor delta (Homo sapiens, UniProt Q03181)
Sequence (Q03181 whole entry, the tested form may be a part): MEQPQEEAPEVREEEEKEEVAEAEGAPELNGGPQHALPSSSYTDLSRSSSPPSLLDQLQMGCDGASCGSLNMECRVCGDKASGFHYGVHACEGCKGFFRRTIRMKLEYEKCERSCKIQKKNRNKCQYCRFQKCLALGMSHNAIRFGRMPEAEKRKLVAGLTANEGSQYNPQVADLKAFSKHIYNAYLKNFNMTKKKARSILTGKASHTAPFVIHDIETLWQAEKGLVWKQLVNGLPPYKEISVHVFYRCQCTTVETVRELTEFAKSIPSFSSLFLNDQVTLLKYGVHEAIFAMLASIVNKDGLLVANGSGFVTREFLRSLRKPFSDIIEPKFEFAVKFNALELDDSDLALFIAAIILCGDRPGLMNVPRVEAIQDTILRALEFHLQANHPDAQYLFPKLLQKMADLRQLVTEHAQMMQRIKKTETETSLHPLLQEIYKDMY
experimental_details: Agonist activity at human recombinant PPARdelta by GAL4 transactivation assay
Format: functional
applied_conditions: read-out: EC50
Note: pEC50 values are expressed as the negative base-10 logarithm of concentration in M.

Recorded pEC50 for CCC(Oc1cccc(CN(CCCOc2ccccc2)c2nc3c(O)cccc3o2)c1)C(=O)O (centres undefined) with Peroxisome proliferator-activated receptor delta (Homo sapiens, UniProt Q03181), please?
5.72

Recorded pEC50 for CC(C)(Oc1cccc(CCCN(CCOc2ccccc2)c2nc3ccccc3o2)c1)C(=O)O with Peroxisome proliferator-activated receptor delta (Homo sapiens, UniProt Q03181), please?
6.10

Recorded pEC50 for CCC(Oc1cccc(CN(CCCOc2ccc(C)cc2C)c2nc3ccccc3o2)c1)C(=O)O (centres undefined) with Peroxisome proliferator-activated receptor delta (Homo sapiens, UniProt Q03181), please?
6.96

Recorded pEC50 for CCC(Oc1cccc(CN(CCCOc2ccc(O)cc2)c2nc3ccccc3o2)c1)C(=O)O (centres undefined) with Peroxisome proliferator-activated receptor delta (Homo sapiens, UniProt Q03181), please?
8.52

----------
experimental_system: Peroxisome proliferator-activated receptor alpha (Homo sapiens, UniProt Q07869)
Sequence (Q07869 whole entry, the tested form may be a part): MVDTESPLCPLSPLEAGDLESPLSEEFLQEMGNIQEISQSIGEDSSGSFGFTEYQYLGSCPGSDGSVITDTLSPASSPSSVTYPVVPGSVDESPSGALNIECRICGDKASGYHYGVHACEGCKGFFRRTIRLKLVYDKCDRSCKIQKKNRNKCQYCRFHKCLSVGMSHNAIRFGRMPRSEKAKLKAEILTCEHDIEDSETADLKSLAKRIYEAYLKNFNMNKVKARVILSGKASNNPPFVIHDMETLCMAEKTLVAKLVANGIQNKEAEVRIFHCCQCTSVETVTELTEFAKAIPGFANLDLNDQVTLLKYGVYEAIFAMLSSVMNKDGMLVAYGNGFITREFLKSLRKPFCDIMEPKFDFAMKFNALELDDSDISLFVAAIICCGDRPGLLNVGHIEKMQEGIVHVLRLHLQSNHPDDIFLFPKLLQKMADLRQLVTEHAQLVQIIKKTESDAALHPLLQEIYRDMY
experimental_details: Agonist activity at human recombinant PPARalpha by GAL4 transactivation assay
Type: functional
applied_conditions: read-out: EC50
Property: EC50; scope: individual compounds
The reply should be a number in nM, with the unit left off.

A selection of reference data follows.
CCC(Oc1cccc(CN(CCCOc2ccc(O)cc2)c2nc3ccccc3o2)c1)C(=O)O (stereo not drawn); 260
CC[C@H](Oc1cccc(CN(CCCOc2ccc(F)cc2)c2nc3ccccc3o2)c1)C(=O)O; 20

Kindly consider the entry below.
Recorded EC50 for CCC(Oc1cccc(CN(CCCOc2ccc(C)cc2C)c2nc3ccccc3o2)c1)C(=O)O (stereo not drawn) with Peroxisome proliferator-activated receptor alpha (Homo sapiens, UniProt Q07869), please?
1
